Measured EC20 Heart rate, listed per entry.
- Test system: Danio rerio embryo
- assayOverview: EC20 Heart rate; higher = less potent
- measurementConditions: exposure time: 4 dpf
outcomeMeasure: EC20 Heart rate (µM)

CCCCC(O)(Cn1cncn1)c1ccc(Cl)cc1Cl (centres undefined): 11.1
CC(C)(C)C(O)/C(=C/c1ccc(Cl)cc1Cl)n1cncn1 (centres undefined): 7
CNCCC=C1c2ccccc2CCc2ccccc21: 19.3
CCCNCC(O)COc1ccccc1C(=O)CCc1ccccc1 (centres undefined): 4.78
CC1(C)O[C@@H]2[C@@H](CO[C@@]3(COS(N)(=O)=O)OC(C)(C)O[C@@H]23)O1 [Topiramate]: 28.3
CSc1nc2cc(Cl)c(Oc3cccc(Cl)c3Cl)cc2[nH]1: 0.364
O=C(O)CCc1nc(-c2ccccc2)c(-c2ccccc2)o1: 29.1
Cc1ccc(-c2cc(C(F)(F)F)nn2-c2ccc(S(N)(=O)=O)cc2)cc1: 4.72
CCOC(=O)N1CCC(=C2c3ccc(Cl)cc3CCc3cccnc32)CC1: 2.18
